B1: OR4K15 (parent)
chain: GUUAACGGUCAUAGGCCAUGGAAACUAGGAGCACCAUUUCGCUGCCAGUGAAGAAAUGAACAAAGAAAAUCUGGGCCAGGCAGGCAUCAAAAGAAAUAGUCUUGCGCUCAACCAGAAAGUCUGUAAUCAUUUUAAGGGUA

Variants of: B1
Experiment: self-cleavage, relative activity (ratio to wild type); higher = more cleavage; in vitro, sequencing; the parent is a self-cleaving ribozyme
Given measured self-cleavage, output criterion met if it is greater than or equal to 1 and criterion not met if not.

{"Variant Descriptor": "C113G U131C", "Class Name": "criterion not met"}
{"Variant Descriptor": "A47G G58A", "Class Name": "criterion not met"}
{"Variant Descriptor": "A89C", "Class Name": "criterion met"}
{"Variant Descriptor": "U19A A114G", "Class Name": "criterion not met"}
{"Variant Descriptor": "A33U A98G", "Class Name": "criterion met"}
{"Variant Descriptor": "A5U U49A", "Class Name": "criterion met"}
{"Variant Descriptor": "U108C U131C", "Class Name": "criterion not met"}
{"Variant Descriptor": "A56G A125U", "Class Name": "criterion met"}
{"Variant Descriptor": "U3C A67G", "Class Name": "criterion not met"}
{"Variant Descriptor": "A5G U124A", "Class Name": "criterion not met"}
{"Variant Descriptor": "G84U U108C", "Class Name": "criterion not met"}
{"Variant Descriptor": "A22G A24U", "Class Name": "criterion met"}
{"Variant Descriptor": "U72G A78G", "Class Name": "criterion not met"}
{"Variant Descriptor": "A51G G84A", "Class Name": "criterion met"}
{"Variant Descriptor": "A114C U122A", "Class Name": "criterion not met"}
{"Variant Descriptor": "U9A A59U", "Class Name": "criterion met"}
{"Variant Descriptor": "A89U A98U", "Class Name": "criterion met"}

Source listed as the RNAGym collection of RNA variant scans (doi:10.7554/elife.90254).
